Would you kindly list EC50, Assay 6: antagonism of CD95L-T4-induced apoptosis on Jurkat A3 cells for each of these binders?
Target: T1, APG293 (human CD95L-T4) (human)
T1 chain: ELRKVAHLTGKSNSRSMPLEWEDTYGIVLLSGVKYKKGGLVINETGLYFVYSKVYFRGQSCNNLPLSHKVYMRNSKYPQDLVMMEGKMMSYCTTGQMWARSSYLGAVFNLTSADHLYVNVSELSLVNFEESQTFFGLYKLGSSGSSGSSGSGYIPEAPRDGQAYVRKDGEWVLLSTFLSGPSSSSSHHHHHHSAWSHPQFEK
Test: cell-based or functional assay
// return numeric value only (unit: ng/mL, not printed)

Request: Entry scFv-minibody SEQ ID 39 (scFv) scFv: EVQLVESGGGLVQPGGSLRLSCAASGFSFSSGYDMCWVRQAPGKGLEWVACIDTDNDATYYADSVKGRFTISKDSSKNTLYLQMNSLRAEDTAVYYCARTHGDYVAFKLWGQGTLVTVSGGGSGGGSGGGSGGGSDIQMTQSPSSLSASVGDRVTITCQSSQSVYKNNDLSWYQQKPGKAPKLLIYQASKLASGVPSRFSGSGSGTDFTLTISSLQPEDFATYYCAGGYTASIYAFGQGTKVEIKGSGSSGQPREPQVYTLPPSREEMTKNQVSLTCLVKGFYPSDIAVEWESQGSPENNYKTTPPVLDSDGSFFLYSKLTVDKSRWQQGNVFSCSVMHEALHNHYTQKSLSLSPGSSSSSSAWSHPQFEK has what EC50, Assay 6: antagonism of CD95L-T4-induced apoptosis on Jurkat A3 cells?
Response: 83.4

Request: // query: scFv-minibody SEQ ID 50 (scFv) scFv: EVQLVESGGGLVQPGGSLRLSCAASGFSFSDHYWMCWVRQAPGKGLEWVACIYTADSDSYYADSVKGRFTISKDSSKNTLYLQMNSLRAEDTAVYYCARNGAYAGGPYGDLWGQGTLVTVSGGGSGGGSGGGSGGGSDIQMTQSPSSLSASVGDRVTITCKASQSIRTSLVWYQQKPGKAPKLLIYKASDLPSGVPSRFSGSGSGTDFTLTISSLQPEDFATYYCQSYDFRDTINNGHSFGQGTKVEIKGSGSSGQPREPQVYTLPPSREEMTKNQVSLTCLVKGFYPSDIAVEWESQGSPENNYKTTPPVLDSDGSFFLYSKLTVDKSRWQQGNVFSCSVMHEALHNHYTQKSLSLSPGSSSSSSAWSHPQFEK
Response: 140

Request: // query: scFv-minibody SEQ ID 40 (scFv) scFv: EVQLVESGGGLVQPGGSLRLSCAASGFSFSSGYDMSWVRQAPGKGLEWVSAIDTDNDATYYADSVKGRFTISKDSSKNTLYLQMNSLRAEDTAVYYCARTHGDYVAFKLWGQGTLVTVSGGGSGGGSGGGSGGGSDIQMTQSPSSLSASVGDRVTITCQSSQSVYKNNDLSWYQQKPGKAPKLLIYQASKLASGVPSRFSGSGSGTDFTLTISSLQPEDFATYYCAGGYTASIYAFGQGTKVEIKGSGSSGQPREPQVYTLPPSREEMTKNQVSLTCLVKGFYPSDIAVEWESQGSPENNYKTTPPVLDSDGSFFLYSKLTVDKSRWQQGNVFSCSVMHEALHNHYTQKSLSLSPGSSSSSSAWSHPQFEK
Response: 571
